METHOD NOTES: Compound plasma exposure in cyno DRF study
Type: in vivo
CONDITION DESCRIPTION: cynomolgus monkey, po, 100 mg/kg, 100 mg/kg PO, 1 day of dosing
Reported Cmax values for a set of compounds

# COMPOUND, Cmax, nM
data = [
    ("CN1CCN([C@H]2CCCN(c3cnc(C(N)=O)c(Nc4ccc(C5CCN(CC6CCN(c7ccc(C(=O)NC8CCC(=O)NC8=O)nc7)CC6)CC5)cc4)n3)C2)C1=O (stereo partly drawn) [Compound 130]", 96),
    ("CN1CCN([C@@H]2CCCN(c3cnc(C(N)=O)c(Nc4ccc(C5CCN(C[C@H]6CCN(c7ccc8c(c7)C(=O)N(C7CCC(=O)NC7=O)C8=O)C6)CC5)cc4)n3)C2)C1=O (stereo partly drawn) [Compound 44]", 22.6),
    ("NC(=O)c1ncc(N2CCCCC2)nc1Nc1ccc(C2CCN(C[C@@H]3CCN(c4ccc5c(c4)C(=O)N(C4CCC(=O)NC4=O)C5=O)C3)CC2)cc1 (stereo partly drawn) [Compound 149]", 76),
]

* * *

ASSAYED SYSTEM: BTK (Mus musculus)
Construct: from tissue; host or cells: mouse blood B cells / splenocytes (CD-1 or BALB/c)
Sequence (P35991 whole entry): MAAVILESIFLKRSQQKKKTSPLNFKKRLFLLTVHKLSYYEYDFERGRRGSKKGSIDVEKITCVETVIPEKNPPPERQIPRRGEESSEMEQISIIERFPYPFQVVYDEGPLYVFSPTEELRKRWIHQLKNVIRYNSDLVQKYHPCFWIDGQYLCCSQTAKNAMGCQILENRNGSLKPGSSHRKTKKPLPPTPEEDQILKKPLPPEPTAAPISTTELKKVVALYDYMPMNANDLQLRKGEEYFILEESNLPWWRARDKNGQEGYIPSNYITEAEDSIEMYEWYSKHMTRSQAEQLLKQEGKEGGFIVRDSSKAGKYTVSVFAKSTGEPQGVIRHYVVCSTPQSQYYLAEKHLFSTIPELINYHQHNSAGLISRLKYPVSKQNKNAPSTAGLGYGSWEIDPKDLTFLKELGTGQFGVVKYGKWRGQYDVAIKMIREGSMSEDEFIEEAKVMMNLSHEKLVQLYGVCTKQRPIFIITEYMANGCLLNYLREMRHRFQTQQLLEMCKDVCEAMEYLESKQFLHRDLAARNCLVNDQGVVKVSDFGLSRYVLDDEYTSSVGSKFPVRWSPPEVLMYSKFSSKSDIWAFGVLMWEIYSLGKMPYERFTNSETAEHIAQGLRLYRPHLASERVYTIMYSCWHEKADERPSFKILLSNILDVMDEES
METHOD NOTES: In vivo degradation of BTK in mouse PD experiments with oral dosing
CONDITION DESCRIPTION: oral dose 90 mg/kg, 6 h, splenocytes, HTRF
Response field label: string, one of fulfilled (% BTK Remaining strictly below 7%) or not fulfilled.

# COMPOUND, CAT
measured = [
    ("CN1CCN([C@@H]2CCCN(c3cnc(C(N)=O)c(Nc4ccc(N5CCN(CC6CN(c7ccc8c(c7)C(=O)N(C7CCC(=O)NC7=O)C8=O)C6)CC5)cc4)n3)C2)C1=O (stereo partly shown)", "fulfilled"),
    ("CN1CCN([C@@H]2CCCN(c3cnc(C(N)=O)c(Nc4ccc(C5CCN(CC6CN(c7ccc8c(c7)C(=O)N(C7CCC(=O)NC7=O)C8=O)C6)CC5)cc4)n3)C2)C1=O (stereo partly shown)", "fulfilled"),
    ("CN1CCN([C@@H]2CCCN(c3cnc(C(N)=O)c(Nc4ccc(C5CCN(C[C@H]6CCCN(c7ccc8c(c7)C(=O)N(C7CCC(=O)NC7=O)C8=O)C6)CC5)cc4)n3)C2)C1=O (stereo partly shown)", "not fulfilled"),
    ("CN1CCN([C@@H]2CCCN(c3cnc(C(N)=O)c(Nc4ccc(C5(C)CCN(c6ccc7c(c6)C(=O)N(C6CCC(=O)NC6=O)C7=O)CC5)cc4)n3)C2)C1=O (stereo partly shown)", "not fulfilled"),
    ("CN1CCN([C@@H]2CCCN(c3cnc(C(N)=O)c(Nc4ccc(C5CCN(CCC6CN(c7ccc8c(c7)C(=O)N(C7CCC(=O)NC7=O)C8=O)C6)CC5)cc4)n3)C2)C1=O (stereo partly shown)", "not fulfilled"),
    ("CN1CCN([C@@H]2CCCN(c3cnc(C(N)=O)c(Nc4ccc(C5CCN(C[C@H]6CCN(c7ccc8c(c7)C(=O)N(C7CCC(=O)NC7=O)C8=O)C6)CC5)cc4)n3)C2)C1=O (stereo partly shown)", "fulfilled"),
    ("CN1CCN([C@@H]2CCCN(c3cnc(C(N)=O)c(Nc4ccc(N5CCN(CC6CCN(c7ccc8c(c7)C(=O)N(C7CCC(=O)NC7=O)C8=O)CC6)CC5)cc4)n3)C2)C1=O (stereo partly shown)", "fulfilled"),
    ("CN1CCN([C@@H]2CCCN(c3cnc(C(N)=O)c(Nc4ccc(N5CCN(CCC6CN(c7ccc8c(c7)C(=O)N(C7CCC(=O)NC7=O)C8=O)C6)CC5)cc4)n3)C2)C1=O (stereo partly shown)", "fulfilled"),
    ("CN1CCN([C@@H]2CCCN(c3cnc(C(N)=O)c(Nc4ccc(C5CCN(C[C@@H]6CCN(c7ccc8c(c7)C(=O)N(C7CCC(=O)NC7=O)C8=O)C6)CC5)cc4)n3)C2)C1=O (stereo partly shown)", "fulfilled"),
    ("CN1CCN([C@@H]2CCCN(c3cnc(C(N)=O)c(Nc4ccc(N5CCN(C[C@H]6CCN(c7ccc8c(c7)C(=O)N(C7CCC(=O)NC7=O)C8=O)C6)CC5)cc4)n3)C2)C1=O (stereo partly shown)", "fulfilled"),
    ("CN1CCN([C@@H]2CCCN(c3cnc(C(N)=O)c(Nc4ccc(C5CCN(CC6CCN(c7ccc8c(c7)C(=O)N(C7CCC(=O)NC7=O)C8=O)CC6)CC5)cc4)n3)C2)C1=O (stereo partly shown)", "fulfilled"),
    ("CN1CCN([C@@H]2CCCN(c3cnc(C(N)=O)c(Nc4ccc(N5CCN(C[C@@H]6CCCN(c7ccc8c(c7)C(=O)N(C7CCC(=O)NC7=O)C8=O)C6)CC5)cc4)n3)C2)C1=O (stereo partly shown)", "not fulfilled"),
    ("CN1CCN([C@@H]2CCCN(c3cnc(C(N)=O)c(Nc4ccc(C5CCN(c6ccc7c(c6)C(=O)N(C6CCC(=O)NC6=O)C7=O)CC5)cc4)n3)C2)C1=O (stereo partly shown)", "not fulfilled"),
    ("CN1CCN([C@@H]2CCCN(c3cnc(C(N)=O)c(Nc4ccc(C5CCN(CCC6CCN(c7ccc8c(c7)C(=O)N(C7CCC(=O)NC7=O)C8=O)CC6)CC5)cc4)n3)C2)C1=O (stereo partly shown)", "not fulfilled"),
]
